Reference for the values: patent US10695333B2

# ASSAY PROCEDURE: clinical
# CONDITION NOTES: human, in vivo, po
METRIC NAME: half-life

Could you please provide reported half-life for CC(F)(F)c1cc(F)ccc1-c1sc2cc(O)ccc2c1Oc1ccc(/C=C/C(=O)O)cc1 ? Thanks!
3.1 to 5.6 h

---

# ASSAY PROCEDURE: clinical
# CONDITION NOTES: human, in vivo, po
METRIC NAME: Tmax

Look up Tmax of CC(F)(F)c1cc(F)ccc1-c1sc2cc(O)ccc2c1Oc1ccc(/C=C/C(=O)O)cc1 and report it.
2 to 3 h
